quantity: melting point

Exercise: Which melting point value belongs to `CC(C)(C)c1cc(CC(=O)N2CC(O)C2)cc(C(C)(C)C)c1O` ?
Key: 154 to 156 °C

Exercise: Which melting point value belongs to `CC1(O)CN(C(=O)c2cc(C(C)(C)C)c(O)c(C(C)(C)C)c2)C1` ?
Key: 148 to 153 °C

Exercise: Which melting point value belongs to `CC(C)(C)c1cc(C(=O)N2CC(O)C2)cc(C(C)(C)C)c1O` ?
Key: 185 to 189 °C

Exercise: Which melting point value belongs to `CC(C)(C)c1cc(C(=O)N2CC(O)C2)cc2c1OCC2(C)C` ?
Key: 144 to 148 °C

Exercise: Which melting point value belongs to CC1C(O)CN1C(=O)c1cc(C(C)(C)C)c(O)c(C(C)(C)C)c1 (stereo not shown) ?
Key: 162 to 166 °C

Exercise: Which melting point value belongs to `CC(C)(C)c1cc(C(=O)N2CC(O)C2)cc(C(C)(C)C)c1` ?
Key: 146 to 149 °C

Exercise: Which melting point value belongs to `CC(C)(C)c1cc(C(=O)N2CC(Br)C2)cc(C(C)(C)C)c1O` ?
Key: 160 to 163 °C

Cited source for all entries: patent US20070093469A1
